- assayed.system: CTX-M-15 (Escherichia coli, UniProt Q9EXV5)
- Construct: made in house; host or cells: E. coli (DH5 and BL21(DE3) named)
- Sequence (Q9EXV5 29-291, species assumed): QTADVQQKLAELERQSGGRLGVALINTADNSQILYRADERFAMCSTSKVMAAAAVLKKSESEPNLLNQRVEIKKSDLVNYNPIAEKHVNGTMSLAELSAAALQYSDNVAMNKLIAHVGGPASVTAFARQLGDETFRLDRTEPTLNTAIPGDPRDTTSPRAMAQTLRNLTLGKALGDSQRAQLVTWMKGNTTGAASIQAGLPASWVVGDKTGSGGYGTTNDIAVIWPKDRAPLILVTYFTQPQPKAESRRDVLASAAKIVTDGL
- procedure.text: Steady-state kinetics of antibiotic hydrolysis with inhibitor
- Assay type: biochemical
- conditions.used: meropenem, inhibitor concentration as per IC50
property.label: kcat (S^−1)
Value expressed in S^−1; do not type the unit.

Please review the following examples before continuing.
Return kcat (reported value) for this compound: NC(=O)[C@@H]1CC[C@@H]2CN1C(=O)N2OS(=O)(=O)O [Avibactam, reference compound]
1.566

Identify the reported kcat for the following entry. O=C(O)c1ccccc1C(=O)N1CCN(c2nc(-c3ccccc3)ns2)CC1
0.9091

Next up:
Check the records and state kcat for O=C(CN1C(=O)c2ccccc2S1(=O)=O)c1ccc(O)c(O)c1
1.723

###

- assayed.system: Amp-C (Escherichia coli, UniProt P00811)
- Construct: made in house; host or cells: E. coli (DH5 and BL21(DE3) named; pET-28a)
- Sequence (P00811 20-377): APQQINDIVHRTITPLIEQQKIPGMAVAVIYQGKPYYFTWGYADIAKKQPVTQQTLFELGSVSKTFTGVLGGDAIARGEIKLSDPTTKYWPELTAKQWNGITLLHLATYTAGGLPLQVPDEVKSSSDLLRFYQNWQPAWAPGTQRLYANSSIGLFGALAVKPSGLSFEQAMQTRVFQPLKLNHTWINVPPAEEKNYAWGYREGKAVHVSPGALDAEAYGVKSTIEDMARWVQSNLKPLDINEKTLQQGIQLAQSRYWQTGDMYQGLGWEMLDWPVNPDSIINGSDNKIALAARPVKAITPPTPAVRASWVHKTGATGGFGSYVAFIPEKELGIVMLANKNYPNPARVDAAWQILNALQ
- procedure.text: Steady-state kinetics of antibiotic hydrolysis with inhibitor
- Format: biochemical
- conditions.used: imipenem, inhibitor concentration as per IC50
property.label: Km or Ki (μΜ)
The reply should contain only the number, in μΜ.

A selection of reference data follows.
Quote Km or Ki reported for O=C(O)c1ccccc1C(=O)N1CCN(c2nc(-c3ccccc3)ns2)CC1 please.
499

Quote Km or Ki reported for O=C(CN1C(=O)c2ccccc2S1(=O)=O)c1ccc(O)c(O)c1 please.
499.22

Kindly review the next compound as well.
Supply measured Km or Ki of NC(=O)[C@@H]1CC[C@@H]2CN1C(=O)N2OS(=O)(=O)O [Avibactam, reference compound] in your reply.
321

###

// NDM-1 (Klebsiella pneumoniae) IC50 records
Supply the numeric figure in nM, leaving out any unit text.

Example entries begin here.
Enter IC50 (test system NDM-1 (Klebsiella pneumoniae)) for O=C(CN1C(=O)c2ccccc2S1(=O)=O)c1ccc(O)c(O)c1
0.733

Write down the reported IC50 (system: NDM-1 (Klebsiella pneumoniae)) of O=C(c1ccccc1)C1CCN(C(=O)CN2C(=O)c3ccccc3C2=O)CC1
Sequence (C7C422 29-270, looked up, species assumed): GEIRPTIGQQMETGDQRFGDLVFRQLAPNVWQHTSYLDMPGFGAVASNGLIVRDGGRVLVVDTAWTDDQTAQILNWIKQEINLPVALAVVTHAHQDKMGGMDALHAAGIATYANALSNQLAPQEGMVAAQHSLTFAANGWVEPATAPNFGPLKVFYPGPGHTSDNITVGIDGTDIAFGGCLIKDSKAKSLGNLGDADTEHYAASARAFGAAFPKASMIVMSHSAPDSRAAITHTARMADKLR
0.632

# input for lookup
Given O=C(O)c1ccccc1C(=O)N1CCN(c2nc(-c3ccccc3)ns2)CC1 , report its IC50 on NDM-1 (Klebsiella pneumoniae).
0.624

###

- assayed.system: KPC-2 (Klebsiella pneumoniae, UniProt Q9F663)
- Construct: made in house; host or cells: E. coli (DH5 and BL21(DE3) named; pET-28a)
- Sequence (Q9F663 25-293, looked up, species assumed): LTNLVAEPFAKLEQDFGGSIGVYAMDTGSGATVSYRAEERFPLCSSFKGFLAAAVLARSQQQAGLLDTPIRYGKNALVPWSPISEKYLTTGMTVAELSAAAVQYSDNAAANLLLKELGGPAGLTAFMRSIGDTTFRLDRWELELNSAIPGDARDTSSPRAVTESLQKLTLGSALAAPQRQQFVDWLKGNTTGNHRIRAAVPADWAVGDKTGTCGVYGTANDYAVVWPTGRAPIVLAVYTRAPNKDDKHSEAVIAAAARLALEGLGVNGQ
- procedure.text: Steady-state kinetics of antibiotic hydrolysis with inhibitor
- Assay type: biochemical
- conditions.used: cefotaxime, inhibitor concentration as per IC50
Below, each entry is listed alongside its reported Km or Ki.
Provide a numeric answer, followed by its unit.

Record excerpt, results attached:
Give the value of Km or Ki reported for the following: NC(=O)[C@@H]1CC[C@@H]2CN1C(=O)N2OS(=O)(=O)O [Avibactam, reference compound]
1299 μΜ

Give the reported Km or Ki for this molecule. O=C(c1ccccc1)C1CCN(C(=O)CN2C(=O)c3ccccc3C2=O)CC1
358.7 μΜ

Please give the documented Km or Ki of O=C(CN1C(=O)c2ccccc2S1(=O)=O)c1ccc(O)c(O)c1
713 μΜ

API: the following record is the query input.
State its Km or Ki for this molecule: O=C(O)c1ccccc1C(=O)N1CCN(c2nc(-c3ccccc3)ns2)CC1
549.1 μΜ

The reported measurements were obtained from paper PMC9603770.
